For each of the compounds below, state its MEC.
Biological target: Geranylgeranyl pyrophosphate synthase (Homo sapiens) (UniProt O95749)
Sequence (O95749 whole entry): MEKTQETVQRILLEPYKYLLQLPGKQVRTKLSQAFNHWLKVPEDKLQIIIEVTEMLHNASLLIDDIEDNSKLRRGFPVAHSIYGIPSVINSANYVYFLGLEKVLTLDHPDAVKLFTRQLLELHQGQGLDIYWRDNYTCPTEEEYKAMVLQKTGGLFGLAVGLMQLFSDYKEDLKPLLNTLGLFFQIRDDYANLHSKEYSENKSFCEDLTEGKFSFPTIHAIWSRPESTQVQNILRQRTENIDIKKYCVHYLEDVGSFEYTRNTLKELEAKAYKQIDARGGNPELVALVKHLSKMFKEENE
Assay: Inhibition of GGDPS (unknown origin) using uRAP1a as substrate in RPMI-8226 cells by measuring lowest effective concentration by measuring unmodified Rap1a by immunoblot based ELISA analysis
Assay type: cell-based
Answers are plain numbers, in µM.

Here are 4 compounds together with their reported answers.
CC(C)=CCC/C(C)=C/CCn1cc(CC(N)(P(=O)(O)O)P(=O)(O)O)nn1: 1
CC(C)=CCC/C(C)=C/CCn1cc(CC(P(=O)(O)O)P(=O)(O)O)nn1: 0.03
CC(C)=CCC/C(C)=C\Cn1cc(CC(N)(P(=O)(O)O)P(=O)(O)O)nn1: 0.25
CC(C)=CCCC(C)=CCn1cc(CC(N)(P(=O)(O)O)P(=O)(O)O)nn1: 0.5

Tested system Geranylgeranyl pyrophosphate synthase (Homo sapiens) (UniProt O95749); MEC recorded for CC(C)=CCC/C(C)=C\CCn1cc(CC(N)(P(=O)(O)O)P(=O)(O)O)nn1 was 0.25
